# system.name: human serum albumin (human) (UniProt P02768)
# Sequence (P02768 25-609 limits assumed): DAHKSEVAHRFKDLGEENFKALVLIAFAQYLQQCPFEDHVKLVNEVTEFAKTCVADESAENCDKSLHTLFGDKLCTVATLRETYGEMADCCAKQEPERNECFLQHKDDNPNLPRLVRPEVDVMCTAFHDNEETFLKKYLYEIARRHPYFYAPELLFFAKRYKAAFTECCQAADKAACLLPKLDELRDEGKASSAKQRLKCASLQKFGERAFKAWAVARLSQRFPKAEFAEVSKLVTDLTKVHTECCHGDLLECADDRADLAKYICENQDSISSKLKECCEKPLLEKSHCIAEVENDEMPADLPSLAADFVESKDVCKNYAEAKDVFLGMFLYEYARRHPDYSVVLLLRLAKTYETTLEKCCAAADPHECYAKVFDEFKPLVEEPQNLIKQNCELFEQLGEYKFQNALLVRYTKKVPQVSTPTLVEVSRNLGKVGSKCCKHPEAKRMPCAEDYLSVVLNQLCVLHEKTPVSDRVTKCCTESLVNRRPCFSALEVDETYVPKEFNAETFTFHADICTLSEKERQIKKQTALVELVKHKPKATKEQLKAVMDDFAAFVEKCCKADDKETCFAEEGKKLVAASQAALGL
# assay.name: primary ELISA of colonies, luminescence; negative control antigen
observable: HSA, RLU (RLU)

{"binder": "CD71-binding FN3 domain of SEQ ID NO: 102 (designed binder, not shown: small tags and cut ends) MLPAPKNLVVSRVTEDSARLSWTAPDAAFDSFDIGYTEYGGYGEAIILQVPGSERSYDLTGLKPGTEYWVLIQGVKGGGSSVPLVAYFTT", "observable": "HSA, RLU", "output.unit": "RLU", "test.result": 4550}
{"binder": "CD71-binding FN3 domain of SEQ ID NO: 107 (designed binder, not shown: small tags and cut ends) MLPAPKNLVVSRVTEDSARLSWTAPDAAFDSFFIGYLEPQPPGEAIGLQVPGSERSYDLTGLKPGTEYNVTIQGVKGGFPSMPLSAIFTT", "observable": "HSA, RLU", "output.unit": "RLU", "test.result": 3250}
{"binder": "CD71-binding FN3 domain of SEQ ID NO: 116 (designed binder, not shown: small tags and cut ends) MLPAPKNLVVSRVTEDSARLSWTAPDAAFDSFYIAYAEPRPDGEAILLLVPGSERSYDLTGLKPGTEYSVLIHGVKGGLLSSPLIAGFTT", "observable": "HSA, RLU", "output.unit": "RLU", "test.result": 2750}
{"binder": "CD71-binding FN3 domain of SEQ ID NO: 113 (designed binder, not shown: small tags and cut ends) MLPAPKNLVVSRVTEDSARLSWTAPDAAFDSFFIGYLEPQPPGEAIYLLVPGSERSYDLTGLKPGTEYNVTIQGVKGGFPSDPLSAIFTT", "observable": "HSA, RLU", "output.unit": "RLU", "test.result": 2800}
{"binder": "CD71-binding FN3 domain of SEQ ID NO: 106 (designed binder, not shown: small tags and cut ends) MLPAPKNLVVSRVTEDSARLSWTAPDAVFDSFYIAYAEPRPDGEAIGLYVPGSERSYDLTGLKPGTEYSVLIHGVKGGLLSSPLTASFTT", "observable": "HSA, RLU", "output.unit": "RLU", "test.result": 2550}
